Data origin: patent US20110319379A1

Molecular target: recombinant human glucokinase (beta cell isoform) (Homo sapiens)
Construct: Full-length glucokinase (beta cell isoform) was His-tagged at the N-terminus; His tag (N); made in house; host or cells: E. coli BL21(DE3), vector pBCGK
Sequence (P35557 1-465): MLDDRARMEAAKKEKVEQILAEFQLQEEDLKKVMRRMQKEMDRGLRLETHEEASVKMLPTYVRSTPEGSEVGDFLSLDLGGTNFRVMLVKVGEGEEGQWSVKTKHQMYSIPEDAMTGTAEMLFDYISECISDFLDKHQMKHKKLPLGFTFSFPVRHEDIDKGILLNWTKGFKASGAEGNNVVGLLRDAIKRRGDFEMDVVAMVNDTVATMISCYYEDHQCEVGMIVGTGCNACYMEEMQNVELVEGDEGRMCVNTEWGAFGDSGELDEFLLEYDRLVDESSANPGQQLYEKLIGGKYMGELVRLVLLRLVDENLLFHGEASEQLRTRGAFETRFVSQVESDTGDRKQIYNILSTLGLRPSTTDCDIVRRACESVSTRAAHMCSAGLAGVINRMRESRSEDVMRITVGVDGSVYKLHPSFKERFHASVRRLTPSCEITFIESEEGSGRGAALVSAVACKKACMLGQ
Test: Assay 1: Evaluating Activator Potency and Maximum Activation at 5 mM Glucose
Assay type: biochemical
Property Measured: EC50 (µM)
Report only the number, with the unit µM understood.

What measured EC50 goes with Cc1cnc(NC(=O)c2cc(Oc3cnc(C(=O)N(C)C)c(F)c3)c3cn(C)nc3c2)cn1 ? 1.63
